# system: human MGL from HeLa cells (Homo sapiens, UniProt Q99685)
# Construct: combining endogenously expressed MGL from HeLa cells with test compounds; endogenous in cells; host or cells: HeLa cells / cell homogenates
# test-name: In vitro MGL activity assay: [glycerol-1,3-3H]-oleyl glycerol cleavage by MGL from HeLa cells
# Format: biochemical
# reported-conditions: 300 nM [Glycerol-1,3-3H]-oleyl glycerol, one hour incubation
Listed here are compounds together with their documented pIC50.
The read-out pIC50 is expressed as -log10 of concentration in moles per litre.

In [3]: df
Out[3]:
                              record_smiles  measured_value
0  Cn1nc2c(c1-c1ccccc1)CCN(C(=O)c1cccc3scnc13)C2            6.12
1  COc1ccc(-n2nccn2)c(C(=O)N2CCc3c(nn(C)c3-c3cc(F)c(F)c(F)c3)[C@@H]2C)c1            7.70
2  C[C@H]1c2nn(C)c(-c3cc(F)cc(F)c3)c2CCN1C(=O)c1ccnc2c1ccn2CCF            8.79

pIC50 on human MGL from HeLa cells (Homo sapiens, UniProt Q99685) for C[C@H]1c2nn(C)c(-c3cc(F)c(F)c(F)c3)c2CCN1C(=O)c1cc(F)ccc1-n1cccn1 is 7.12

* * *

# system: human MGL from HeLa cells (Homo sapiens, UniProt Q99685)
# Construct: combining endogenously expressed MGL from HeLa cells with test compounds; endogenous in cells; host or cells: HeLa cells / cell homogenates
# test-name: In vitro MGL activity assay: [glycerol-1,3-3H]-oleyl glycerol cleavage by MGL from HeLa cells
# Format: biochemical
# reported-conditions: 300 nM [Glycerol-1,3-3H]-oleyl glycerol, one hour incubation
Binary call on IC50 with cut-off 200 nM: strictly below means y, and equality or higher means n.

Use these answered entries as a reference point.
>>> print(df.to_string())
                                   compound                                    system  group
0  COc1ccc(C(=O)N2CCc3c(nn(C)c3-c3ccccc3)C2)cc1OC  human MGL from HeLa cells (Homo sapiens, UniProt Q99685)      n
1  CC1c2nn(C(F)F)c(-c3cc(F)cc(F)c3)c2CCN1C(=O)c1ccc2ncccc2c1 (centres unmarked)  human MGL from HeLa cells (Homo sapiens, UniProt Q99685)      y
2  C[C@H]1c2nn(C)c(-c3cc(F)c(F)c(F)c3)c2CCN1C(=O)c1cncc(-n2cccn2)c1  human MGL from HeLa cells (Homo sapiens, UniProt Q99685)      y
3  C[C@H]1c2nn(C)c(-c3cccc(Cl)c3)c2CCN1C(=O)c1cc(CO)ccn1  human MGL from HeLa cells (Homo sapiens, UniProt Q99685)      n
4  Cn1nc2c(c1-c1cccc(Cl)c1)CCN(C(=O)c1ccc3ncccc3c1)C2  human MGL from HeLa cells (Homo sapiens, UniProt Q99685)      n

In: I wonder whether Cn1nc2c(c1-c1ccccc1)CCN(C(=O)c1ccnc3ccccc13)C2 has IC50 below 200 nM. Can you tell?
Out: y

In: I wonder whether C[C@H]1c2nn(C)c(-c3cc(F)c(F)c(F)c3)c2CCN1C(=O)c1cccc2c1ccn2C has IC50 below 200 nM. Can you tell?
Out: y

In: I wonder whether C[C@H]1c2nn(C)c(-c3cc(Cl)cc(Cl)c3)c2CCN1C(=O)c1ccc2nccnc2c1 has IC50 below 200 nM. Can you tell?
Out: y

In: I wonder whether Cc1ccc(-c2c3c(nn2C)[C@H](C)N(C(=O)c2ccc4nccnc4c2)CC3)o1 has IC50 below 200 nM. Can you tell?
Out: n

In: I wonder whether C[C@H]1c2nn(C)c(-c3cc(F)cc(F)c3)c2CCN1C(=O)c1ccc2ncc(C(F)(F)F)cc2c1 has IC50 below 200 nM. Can you tell?
Out: y

* * *

Listed here are compounds together with their documented IC50.
# system: human MGL from HeLa cells (Homo sapiens, UniProt Q99685)
# Construct: combining endogenously expressed MGL from HeLa cells with test compounds; endogenous in cells; host or cells: HeLa cells / cell homogenates
# test-name: In vitro MGL activity assay: [glycerol-1,3-3H]-oleyl glycerol cleavage by MGL from HeLa cells
# Format: biochemical
# reported-conditions: 300 nM [Glycerol-1,3-3H]-oleyl glycerol, one hour incubation
Please respond with the number in µM and leave the unit unwritten.

The cases that follow already have their IC50 on record.
                                   compound                                    system  measured_value
0  CCc1nc(C(=O)N2CCc3c(nn(C)c3-c3cccc(Cl)c3)[C@@H]2C)nn1-c1ccccc1F  human MGL from HeLa cells (Homo sapiens, UniProt Q99685)          0.0138
1  C[C@H]1c2nn(C)c(-c3cc(F)c(F)c(F)c3)c2CCN1C(=O)c1cc(F)ccc1-n1cncn1  human MGL from HeLa cells (Homo sapiens, UniProt Q99685)         0.00901

So for C[C@H]1c2nn(C)c(-c3cc(F)c(F)c(F)c3)c2CCN1C(=O)c1nccc2c1ccn2C , the logged IC50 turned out to be 0.00507

So for C[C@H]1c2nn(C)c(-c3ccc(C(F)(F)F)o3)c2CCN1C(=O)c1ccc2nccnc2c1 , the logged IC50 turned out to be 0.186

* * *

# system: human MGL from HeLa cells (Homo sapiens)
# Construct: combining endogenously expressed MGL from HeLa cells with test compounds; endogenous in cells; host or cells: HeLa cells / cell homogenates
# Sequence (Q99685 1-303): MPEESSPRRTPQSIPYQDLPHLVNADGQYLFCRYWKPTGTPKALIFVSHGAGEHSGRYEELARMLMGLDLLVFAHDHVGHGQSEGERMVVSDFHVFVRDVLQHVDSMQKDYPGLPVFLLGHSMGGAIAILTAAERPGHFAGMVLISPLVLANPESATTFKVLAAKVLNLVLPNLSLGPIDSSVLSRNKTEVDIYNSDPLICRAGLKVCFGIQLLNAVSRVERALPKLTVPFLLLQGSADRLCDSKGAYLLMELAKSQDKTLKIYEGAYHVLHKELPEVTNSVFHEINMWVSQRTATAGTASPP
# test-name: In vitro MGL activity assay: [glycerol-1,3-3H]-oleyl glycerol cleavage by MGL from HeLa cells
# Type: biochemical
# reported-conditions: 300 nM [Glycerol-1,3-3H]-oleyl glycerol, one hour
Listed here are compounds together with their documented pIC50.
The read-out pIC50 is expressed as -log10 of concentration in moles per litre.

                                   compound  measured_value
0  Cc1cnn2nc(C3CC3)c(C(=O)N3CCc4c(nn(C)c4-c4cc(F)c(F)c(F)c4)[C@@H]3C)c2c1 [Example 445]            6.28
1  C[C@H]1c2nn(C)c(-c3cc(F)c(F)c(F)c3)c2CCN1C(=O)c1ccnc2[nH]ncc12 [Example 422]            7.34
2  C[C@H]1c2nn(C)c(-c3cc(F)c(F)c(F)c3)c2CCN1C(=O)c1nc(C(F)(F)F)n2ccncc12 [Example 463]            7.70
3  C[C@H]1c2nn(C)c(-c3cc(F)c(F)c(F)c3)c2CCN1C(=O)c1cccc2c1ncn2C [Example 366]            7.29
4  C[C@H]1c2nn(C)c(-c3ccc(F)c(Cl)c3)c2CCN1C(=O)c1ccc2ncccc2c1 [Example 505]            8.13
5  C[C@H]1c2nn(C)c(-c3cc(F)c(F)c(F)c3)c2CCN1C(=O)c1ccnc2c1CCCO2 [Example 564]            7.23

So for C[C@H]1c2nn(C)c(-c3cc(F)c(F)c(F)c3)c2CCN1C(=O)c1c[nH]c2ncccc12 [Example 373] , the logged pIC50 turned out to be 7.63

So for CC1c2nn(C34CC(C3)C4)c(-c3ccccc3)c2CCN1C(=O)c1cnn(C)c1C1CC1 (single isomer, unassigned) [Example 342] , the logged pIC50 turned out to be 6.59

So for CC(C)Oc1cccc(-c2c3c(nn2C)[C@H](C)N(C(=O)c2ccc4ncccc4c2)CC3)c1 [Example 498] , the logged pIC50 turned out to be 6.44

So for C[C@H]1c2nn(C)c(-c3cc(F)c(F)c(F)c3)c2CCN1C(=O)c1ncnc2c(F)cccc12 [Example 481] , the logged pIC50 turned out to be 8.28

So for C[C@H]1c2nn(C)c(-c3cccc(C(F)(F)F)c3)c2CCN1C(=O)c1ccc2ncccc2c1 [Example 468] , the logged pIC50 turned out to be 7.29

So for COc1ccc(-c2c3c(nn2C)[C@H](C)N(C(=O)c2ccc4ncccc4c2)CC3)cc1C [Example 512] , the logged pIC50 turned out to be 6.73
